# assay.explanation: Toxicity liver stage against HepG2, at 10uM
# Type: cell-based
# Design: test concentration 10 uM, cell line HepG2-A16-CD81EGFP
# reported.conditions: human, HepG2-A16-CD81EGFP cells; read-out: INHIBITION
Kindly supply the reported cytotoxicity at 10 µM values for the records listed here.
Record the value in %, omitting the unit from your answer.

**Query** Which value of cytotoxicity at 10 µM has been reported for CCC(=O)N1CCCC1(C)c1nc(C)no1 (centres undefined) in the records?
**Result** 1.34

**Query** Which value of cytotoxicity at 10 µM has been reported for CCC(NC(=O)c1ccc2[nH]ccc2c1)C(=O)N1CCOCC1 (centres undefined) in the records?
**Result** 5.84

**Query** Which value of cytotoxicity at 10 µM has been reported for Clc1snnc1CN(Cc1cccs1)C1CC1 in the records?
**Result** -8.78

**Query** Which value of cytotoxicity at 10 µM has been reported for CC(C)c1nc(C2CCCN(C(=O)CN3CCN(C)CC3)C2)no1 (centres undefined) in the records?
**Result** 3.8

**Query** Which value of cytotoxicity at 10 µM has been reported for N#Cc1c(Cl)nsc1NCCCN1C(=O)COc2ccccc21 in the records?
**Result** 22.2

**Query** Which value of cytotoxicity at 10 µM has been reported for COc1c(CNCc2ccc(Cn3ccnc3)cc2)c(C)nn1C in the records?
**Result** -25.1

**Query** Which value of cytotoxicity at 10 µM has been reported for CCCN1C(=O)C2(CCCCC2)NC1c1c[nH]nc1-c1cccnc1 (centres undefined) in the records?
**Result** 4.59

**Query** Which value of cytotoxicity at 10 µM has been reported for Cc1ccc(CNC(=O)Nc2nnc(C)s2)cn1 in the records?
**Result** -0.243

**Query** Which value of cytotoxicity at 10 µM has been reported for CC(C)c1cc(=O)[nH]c(-c2ccccc2CN2CCCC2C)n1 (centres undefined) in the records?
**Result** 10.4

**Query** Which value of cytotoxicity at 10 µM has been reported for COc1ccc(NC(=O)CSc2nncn2-n2cccc2)c(OC)c1 in the records?
**Result** -2.74

**Query** Which value of cytotoxicity at 10 µM has been reported for CCN1CCO[C@@H]2CN(S(=O)(=O)c3cccs3)CC[C@@H]2C1 in the records?
**Result** 4.82

**Query** Which value of cytotoxicity at 10 µM has been reported for Cn1ncc2c(=O)[nH]c(CN3CCCc4cc(F)cc(F)c43)nc21 in the records?
**Result** -1.76

**Query** Which value of cytotoxicity at 10 µM has been reported for Cc1nc(N2CCCC2)nc2c1CN(C(=O)c1ccco1)CC2 in the records?
**Result** 5.29

**Query** Which value of cytotoxicity at 10 µM has been reported for CS(=O)(=O)c1ccc(C(=O)N2CCCC(n3cccn3)C2)cc1 (centres undefined) in the records?
**Result** -6.98

**Query** Which value of cytotoxicity at 10 µM has been reported for Cc1ccc(N2CCCC(N(C)Cc3nc(C)c(C)o3)C2)nn1 (centres undefined) in the records?
**Result** 3.15

**Query** Which value of cytotoxicity at 10 µM has been reported for COc1ccc(-c2nnsc2C(=O)N2CCC(C(N)=O)CC2)cc1 in the records?
**Result** -1.7

**Query** Which value of cytotoxicity at 10 µM has been reported for CS(=O)(=O)c1ccc(NC(=O)N2CCc3sccc3C2)cn1 in the records?
**Result** 85.1

**Query** Which value of cytotoxicity at 10 µM has been reported for Cc1cn2c(n1)CCC(NS(=O)(=O)c1ccc(C)s1)C2 (centres undefined) in the records?
**Result** 12.9

**Query** Which value of cytotoxicity at 10 µM has been reported for Cc1ccc(C)c(NC(=O)N(C)Cc2cnn(C)c2)c1 in the records?
**Result** -3.02

**Query** Which value of cytotoxicity at 10 µM has been reported for CCn1cc(S(=O)(=O)NC(=O)CCc2c[nH]c3ccccc23)cn1 in the records?
**Result** -11.3

**Query** Which value of cytotoxicity at 10 µM has been reported for CCn1[nH]c(C)c2c(C(F)(F)C(F)(F)F)cc(=O)nc1-2 in the records?
**Result** -9.29

**Query** Which value of cytotoxicity at 10 µM has been reported for Cc1cc(CN(C)Cc2cnc3c(c2)c(C)nn3C)no1 in the records?
**Result** 0.995

**Query** Which value of cytotoxicity at 10 µM has been reported for CCc1cnc2c(c1Nc1ccccc1OC)c(=O)n(C)c(=O)n2C in the records?
**Result** 6.87

**Query** Which value of cytotoxicity at 10 µM has been reported for CC(C)CCn1nc2ccc(S(=O)(=O)N3CCOCC3)cn2c1=O in the records?
**Result** -2.13

Cited source for all entries: ChEMBL document CHEMBL4513216
